Test: Caco-2 cell monolayer membrane transport assay (Papp and recovery)
Assay type: in vitro ADME
Settings: human, Caco-2, Caco-2, A-B, Sample-01; read-out: Recovery rate in mass, Sample-01
OUTCOME_MEASURE: recovery (%)

[[record]]
molecule = "COC(=O)O[C@H]1C[C@H]2OC[C@@]2(OC(C)=O)[C@H]2[C@H](OC(=O)c3ccccc3)[C@]34OC(=O)O[C@H]3[C@H](OC(=O)[C@H](O)[C@@H](NC(=O)OC(C)(C)C)c3ccccc3)C(C)=C([C@@H](OC)C(=O)[C@]12C)C4(C)C [PCMI-17]"
outcome_measure = "recovery"
unit_label = "%"
value = 104

[[record]]
molecule = "CO[C@H]1C(=O)[C@]2(C)[C@@H](OC(=O)N(C)C)C[C@H]3OC[C@@]3(OC(C)=O)[C@H]2[C@H](OC(=O)c2ccccc2)[C@]23OC(=O)O[C@H]2[C@H](OC(=O)[C@H](O)[C@@H](NC(=O)OC(C)(C)C)c2ccccn2)C(C)=C1C3(C)C [PCMI-15]"
outcome_measure = "recovery"
unit_label = "%"
value = 83.7

[[record]]
molecule = "CO[C@H]1C(=O)[C@@]2(C)[C@H]([C@H](OC(=O)c3ccccc3)[C@]34OC(=O)O[C@H]3[C@H](OC(=O)[C@H](O)[C@@H](NC(=O)OC(C)(C)C)c3ccccc3)C(C)=C1C4(C)C)[C@]1(OC(C)=O)CO[C@@H]1C[C@@H]2O [PCMI-06]"
outcome_measure = "recovery"
unit_label = "%"
value = 128

[[record]]
molecule = "CO[C@H]1C(=O)[C@]2(C)[C@@H](OC(=O)N(C)C)C[C@H]3OC[C@@]3(OC(C)=O)[C@H]2[C@H](OC(=O)c2ccccc2)[C@]23OC(=O)O[C@H]2[C@H](OC(=O)[C@H](O)[C@H](CC(C)C)NC(=O)OC(C)(C)C)C(C)=C1C3(C)C [PCMI-16]"
outcome_measure = "recovery"
unit_label = "%"
value = 32.7

[[record]]
molecule = "CO[C@H]1C(=O)[C@]2(C)[C@@H](OC)C[C@H]3OC[C@@]3(OC(C)=O)[C@H]2[C@H](OC(=O)c2ccccc2)[C@]23OC(=O)O[C@H]2[C@H](OC(=O)[C@H](O)[C@@H](NC(=O)OC(C)(C)C)c2ccccn2)C(C)=C1C3(C)C [PCMI-04]"
outcome_measure = "recovery"
unit_label = "%"
value = 85.2


* * *

Assay: In vivo oral bioavailability assay in rats
Conditions: male, Sprague-Dawley, plasma; rat, intravenous administration 5 mg/kg
OUTCOME_MEASURE: Tmax (h)

[[record]]
structure_smiles = "CO[C@H]1C[C@H]2OC[C@@]2(OC(C)=O)[C@H]2[C@H](OC(=O)c3ccccc3)[C@]34OC(=O)O[C@H]3[C@H](OC(=O)[C@H](O)[C@@H](NC(=O)OC(C)(C)C)c3ccccc3)C(C)=C([C@@H](OC(=O)N(C)C)C(=O)[C@]12C)C4(C)C"
outcome_measure = "Tmax"
value = 0


* * *

Assay: Caco-2 bidirectional transport, efflux ratio
Conditions: human, Caco-2
OUTCOME_MEASURE: efflux ratio

[[record]]
structure_smiles = "CO[C@H]1C(=O)[C@]2(C)[C@@H](OC(=O)N(C)C)C[C@H]3OC[C@@]3(OC(C)=O)[C@H]2[C@H](OC(=O)c2ccccc2)[C@]23OC(=O)O[C@H]2[C@H](OC(=O)[C@H](O)[C@@H](NC(=O)OC(C)(C)C)c2ccccc2)C(C)=C1C3(C)C"
value = 9.58

[[record]]
structure_smiles = "CO[C@H]1C(=O)[C@]2(C)[C@@H](OC)C[C@H]3OC[C@@]3(OC(C)=O)[C@H]2[C@H](OC(=O)c2ccccc2)[C@]23OC(=O)O[C@H]2[C@H](OC(=O)[C@H](O)[C@@H](NC(=O)N(C)C)c2ccccc2)C(C)=C1C3(C)C"
value = 9.62

[[record]]
structure_smiles = "CO[C@H]1C(=O)[C@]2(C)[C@@H](OC)C[C@H]3OC[C@@]3(OC(C)=O)[C@H]2[C@H](OC(=O)c2ccccc2)[C@]23OC(=O)O[C@H]2[C@H](OC(=O)[C@H](O)[C@@H](NC(=O)OC(C)(C)C)c2ccccn2)C(C)=C1C3(C)C"
value = 8.24

[[record]]
structure_smiles = "COC(=O)O[C@H]1C[C@H]2OC[C@@]2(OC(C)=O)[C@H]2[C@H](OC(=O)c3ccccc3)[C@]34OC(=O)O[C@H]3[C@H](OC(=O)[C@H](O)[C@@H](NC(=O)N(C)C)c3ccccc3)C(C)=C([C@@H](OC)C(=O)[C@]12C)C4(C)C"
value = 7.65

[[record]]
structure_smiles = "CO[C@H]1C[C@H]2OC[C@@]2(OC(C)=O)[C@H]2[C@H](OC(=O)c3ccccc3)[C@]34OC(=O)O[C@H]3[C@H](OC(=O)[C@H](O)[C@@H](NC(=O)OC(C)(C)C)c3ccccn3)C(C)=C([C@@H](OC(=O)N(C)C)C(=O)[C@]12C)C4(C)C"
value = 8.14

[[record]]
structure_smiles = "COC(=O)O[C@H]1C[C@H]2OC[C@@]2(OC(C)=O)[C@H]2[C@H](OC(=O)c3ccccc3)[C@]34OC(=O)O[C@H]3[C@H](OC(=O)[C@H](O)[C@@H](NC(=O)OC(C)(C)C)c3ccccc3)C(C)=C([C@@H](OC)C(=O)[C@]12C)C4(C)C"
value = 2.39


* * *

System: Du145 prostate cancer
Test: MTT proliferation inhibition, Du145
Type: cell-based
Conditions: Homo sapiens, DU-145, read-out: Proliferation inhibition rate, DU145 Prostate cancer
OUTCOME_MEASURE: inhibition at 1 µM (%)

[[record]]
structure_smiles = "CO[C@H]1C(=O)[C@@]2(C)[C@H]([C@H](OC(=O)c3ccccc3)[C@]34OC(=O)O[C@H]3[C@H](OC(=O)[C@H](O)[C@@H](NC(=O)OC(C)(C)C)c3ccccc3)C(C)=C1C4(C)C)[C@]1(OC(C)=O)CO[C@@H]1C[C@@H]2O"
outcome_measure = "inhibition at 1 µM"
unit_label = "%"
value = 89.1

[[record]]
structure_smiles = "CO[C@H]1C(=O)[C@]2(C)[C@@H](OC(=O)N(C)C)C[C@H]3OC[C@@]3(OC(C)=O)[C@H]2[C@H](OC(=O)c2ccccc2)[C@]23OC(=O)O[C@H]2[C@H](OC(=O)[C@H](O)[C@H](CC(C)C)NC(=O)OC(C)(C)C)C(C)=C1C3(C)C"
outcome_measure = "inhibition at 1 µM"
unit_label = "%"
value = 91.4

[[record]]
structure_smiles = "CO[C@H]1C(=O)[C@]2(C)[C@@H](OC(=O)N(C)C)C[C@H]3OC[C@@]3(OC(C)=O)[C@H]2[C@H](OC(=O)c2ccccc2)[C@]23OC(=O)O[C@H]2[C@H](OC(=O)[C@H](O)[C@@H](NC(=O)OC(C)(C)C)c2ccccc2)C(C)=C1C3(C)C"
outcome_measure = "inhibition at 1 µM"
unit_label = "%"
value = 89.8

[[record]]
structure_smiles = "CO[C@H]1C[C@H]2OC[C@@]2(OC(C)=O)[C@H]2[C@H](OC(=O)c3ccccc3)[C@]34OC(=O)O[C@H]3[C@H](OC(=O)[C@H](O)[C@@H](NC(=O)N(C)C)c3ccccc3)C(C)=C([C@@H](OC(=O)N(C)C)C(=O)[C@]12C)C4(C)C"
outcome_measure = "inhibition at 1 µM"
unit_label = "%"
value = 87.2


* * *

Assay: In vivo oral bioavailability assay in rats
Conditions: male, Sprague-Dawley, plasma; rat, intravenous administration 5 mg/kg
OUTCOME_MEASURE: Cmax (ng/mL)

[[record]]
structure_smiles = "CO[C@H]1C[C@H]2OC[C@@]2(OC(C)=O)[C@H]2[C@H](OC(=O)c3ccccc3)[C@]34OC(=O)O[C@H]3[C@H](OC(=O)[C@H](O)[C@@H](NC(=O)OC(C)(C)C)c3ccccc3)C(C)=C([C@@H](OC(=O)N(C)C)C(=O)[C@]12C)C4(C)C"
outcome_measure = "Cmax"
value = 11000


* * *

Recorded Papp A→B, one value per entry.
Test: Caco-2 cell monolayer membrane transport assay (Papp and recovery)
Assay type: in vitro ADME
Details: human, Caco-2, Caco-2, A-B, Sample-02; read-out: Papp A-B, Sample-02
OUTCOME_MEASURE: Papp A→B

[[record]]
structure_smiles = "CO[C@H]1C(=O)[C@]2(C)[C@@H](OC(=O)N(C)C)C[C@H]3OC[C@@]3(OC(C)=O)[C@H]2[C@H](OC(=O)c2ccccc2)[C@]23OC(=O)O[C@H]2[C@H](OC(=O)[C@H](O)[C@@H](NC(=O)OC(C)(C)C)c2ccccc2)C(C)=C1C3(C)C"
value = "2.87 ×10⁻⁶ cm/s"

[[record]]
structure_smiles = "COC(=O)O[C@H]1C[C@H]2OC[C@@]2(OC(C)=O)[C@H]2[C@H](OC(=O)c3ccccc3)[C@]34OC(=O)O[C@H]3[C@H](OC(=O)[C@H](O)[C@@H](NC(=O)OC(C)(C)C)c3ccccn3)C(C)=C([C@@H](OC)C(=O)[C@]12C)C4(C)C"
value = "2.33 ×10⁻⁶ cm/s"

